# study-system: MAGI2_5, Q86UL8
# Sequence (Q86UL8 915-1017): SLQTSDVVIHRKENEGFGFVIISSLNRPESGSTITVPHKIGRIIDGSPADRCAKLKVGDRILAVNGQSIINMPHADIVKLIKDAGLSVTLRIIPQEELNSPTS
# procedure-text: holdup assay
# Design: key: below the threshold = too weak to quantify, mostly under pKd 3.1 to 4
# condition-notes: plain residues with an end cap or a label only (N-terminal biotin on a linker: ado-ado)
Think of 4 as a floor: if pKd stands on it or above, it is true (1); beneath it, false (0).

Study these solved cases before continuing.
MQHQRTHTRV [ZSCAN30, Q86W11]: false (0)
RQKEVRESKC [SCN8A, Q9UQD0]: false (0)
RFQQRMQTHV [KIRREL1, Q96J84]: false (0)
EDPRVEVTQF [SLC22A9, Q8IVM8]: true (1)

Check if pKd >= 4 (inclusive). Item: KRPEMTSSSV [MUC3B, MUC3A, Q02505;Q9H195] false (0)

Check if pKd >= 4 (inclusive). Item: DRIQSCLSDA [SBF1, O95248] false (0)

Check if pKd >= 4 (inclusive). Item: TNSRHGETTV [FZD2, Q14332] false (0)

Check if pKd >= 4 (inclusive). Item: AEASVACSLC [PTGIR, P43119] true (1)

Check if pKd >= 4 (inclusive). Item: DPAESMESLV [PTPRG, P23470] true (1)
